# System: NCI/ADR-RES
# assay text: NCI tumour cell line growth inhibition, 48 h
Activity calls are given as the source filed them. Cut-off read from the data, not from the text of the source: active = GI50 up to about 1.1 µM and inactive = higher.
Provide the recorded GI50 for the entries that follow.

Request: Identify the reported GI50 for the following entry. COC(=O)c1cc2ccc(N)nc2[nH]c1=O
Response: > 100 µM (inactive)

Request: Identify the reported GI50 for the following entry. CC(=O)Nc1ccc(C(=O)N[C@@H]2C(=O)N3[C@@H]2SC(C)(C)[C@@H]3C(=O)O)cn1
Response: > 100 µM (inactive)

Request: Identify the reported GI50 for the following entry. Nc1ncc(Cc2nn3c(COc4ccc(Cl)cc4)nnc3s2)s1
Response: > 100 µM (inactive)

Request: Identify the reported GI50 for the following entry. O=C1C(c2c(O)[nH]c3ccc(I)cc23)=Nc2ccccc21
Response: 6 µM (inactive)

Request: Identify the reported GI50 for the following entry. CCC1OC2C(CC=C(C)C)=C3OC(C)(O)C(C)(CC)C(O)C3=C3OC(=O)C=C1C32 (stereo not given)
Response: 42.8 µM (inactive)

Provenance of the data: ChEMBL document CHEMBL1201862
